Tested on: Mfn2 null MEFs
assay-method-text: Mitochondrial elongation (aspect ratio) fusogenicity assay
Assay type: cell-based, mouse
conditions-used: Mfn2 null MEFs, overnight; treatment with 1 μM compound (footnote)
Classes by Aspect ratio (MEAN ± SEM): A (below 3), B (3 to below 4), C (4 or more)

{"compound": "O=C(NCCSCc1ccccc1)C1CCCCO1 (centres unmarked) [drawing 218]", "test-target": "Mfn2 null MEFs", "category": "B"}
{"compound": "O=C(NCCSCc1ccc(Br)s1)C1CCCN(C(=O)c2cccs2)C1 (centres unmarked) [drawing 213]", "test-target": "Mfn2 null MEFs", "category": "C"}
{"compound": "Cc1nnc(SCCCNC(=O)c2n[nH]c3c2CN(C)CC3)s1 [drawing 216]", "test-target": "Mfn2 null MEFs", "category": "B"}
{"compound": "CCOC(=O)c1sc(NC(=O)C(CC)Sc2nnc3c(n2)[nH]c2ccccc23)nc1C (centres unmarked) [drawing 203]", "test-target": "Mfn2 null MEFs", "category": "C"}

Query :: For Cc1nc[nH]c1CSCCn1cnc2cn(C)nc2c1=O [drawing 206] , which Aspect ratio (MEAN ± SEM) bin applies?
Result :: A

Query :: For Cc1ccc(NC(=O)CC2SC(NC(c3ccc(C(C)C)cc3)c3c(O)[nH]c(=O)[nH]c3=O)=NC2=O)c(C)c1 (centres unmarked) [drawing 252] , which Aspect ratio (MEAN ± SEM) bin applies?
Result :: B

Query :: For O=C(CSCC(=O)N1CCCc2ccccc21)Nc1ccccc1 [drawing 249] , which Aspect ratio (MEAN ± SEM) bin applies?
Result :: A

Query :: For S=C(NCCSCc1ccco1)NC1CC2CCC1C2 (centres unmarked) [drawing 225] , which Aspect ratio (MEAN ± SEM) bin applies?
Result :: B

Query :: For CC(/N=N/C(=N)SC1CC(=O)N(c2cccc(C(=O)O)c2)C1=O)c1ccccc1 (centres unmarked) [drawing 247] , which Aspect ratio (MEAN ± SEM) bin applies?
Result :: B

Cited source: patent US10844023B2
